system: Leishmania donovani; test: Antileishmanial activity against Leishmania donovani BPK178 amastigotes infected in Swiss mouse primary peritoneal mouse macrophages assessed as reduction of total parasite burden after 5 days; format: functional, organism-based; settings: Leishmania donovani, BPK178, 120 h; read-out: IC50
parameter: IC50

Sure, the documented IC50 for CCCCCCCCCCCCCCCCOP(=O)([O-])OCC[N+](C)(C)C is 5.5 µM

====

test system: Leishmania guyanensis; experiment: Antileishmanial activity against Leishmania guyanensis PER008 amastigotes infected in Swiss mouse primary peritoneal mouse macrophages assessed as reduction of total parasite burden after 5 days; assay type: functional, organism-based; settings: Leishmania guyanensis, PER008, 120 h; read-out: IC50
parameter: IC50 (µM)
Answer format: numeric, µM implied, no suffix.

The observed IC50 for CCCCCCCCCCCCCCCCOP(=O)([O-])OCC[N+](C)(C)C [MILTEFOSINE] when tested with Leishmania guyanensis stands at 5

====

test system: Leishmania braziliensis; assay: Antileishmanial activity against Leishmania braziliensis PER002cl amastigotes infected in Swiss mouse primary peritoneal mouse macrophages assessed as reduction of total parasite burden after 5 days; format: functional, organism-based; settings: Leishmania braziliensis, PER002cl, 120 h; read-out: IC50
parameter: pIC50
Remember the convention: pIC50 equals -log10 of concentration in molar.

Sure, the documented pIC50 for CCCCCCCCCCCCCCCCOP(=O)([O-])OCC[N+](C)(C)C is 4.99

====

tested on: Leishmania donovani; experiment: Antileishmanial activity against Leishmania donovani BPK190cl amastigotes infected in Swiss mouse primary peritoneal mouse macrophages assessed as reduction of total parasite burden after 5 days; assay type: functional, organism-based; settings: Leishmania donovani, BPK190cl, 120 h; read-out: IC50
parameter: IC50 (µM)
Answer format: numeric, µM implied, no suffix.

Sure, the documented IC50 for CCCCCCCCCCCCCCCCOP(=O)([O-])OCC[N+](C)(C)C is 3

====

test system: Leishmania donovani; assay: Antileishmanial activity against Leishmania donovani BPK091 amastigotes infected in Swiss mouse primary peritoneal mouse macrophages assessed as reduction of total parasite burden after 5 days; type: functional, organism-based; conditions: Leishmania donovani, BPK091, 120 h; read-out: IC50
parameter: pIC50
Remember the convention: pIC50 equals -log10 of concentration in molar.

Sure, the documented pIC50 for CCCCCCCCCCCCCCCCOP(=O)([O-])OCC[N+](C)(C)C is 5.49
